Tested on: APEH
procedure-summary: serine hydrolase off-target inhibition in mouse brain, late-stage follow-up, selectivity assay for DAGLb inhibitor project, biochemical, gel-based competitive ABPP, mouse brain membrane, set 1 (AID 602311)
run-parameters: gel-based competitive ABPP fluorescence, at 10 µM, hits give high values
readout-kind: inhibition (%)
The response must be a number in % with no trailing unit.

Here's what some known entries look like.
{"molecule": "O=C(N1CCCCC1Cc1ccccc1)n1cc(-c2ccc(-c3ccc(C(F)(F)F)cc3)cc2)nn1 (stereo not given)", "readout-kind": "inhibition", "value-unit": "%", "test-value": 0}
{"molecule": "COc1ccccc1-c1ccc(-c2cn(C(=O)N3CCCCC3Cc3ccccc3)nn2)cc1 (stereo not given)", "readout-kind": "inhibition", "value-unit": "%", "test-value": 0}
{"molecule": "O=C(N1CCCCC1Cc1ccccc1)n1cc(-c2ccc(Br)cc2)nn1 (stereo not given)", "readout-kind": "inhibition", "value-unit": "%", "test-value": 0}
{"molecule": "O=C(N1CCCCC1Cc1ccccc1)n1cc(-c2ccc(-c3ccoc3)cc2)nn1 (stereo not given)", "readout-kind": "inhibition", "value-unit": "%", "test-value": 0}

Q) Request: inhibition, test system APEH, entry O=C(N(CCc1ccccc1)Cc1ccco1)n1cc(-c2ccc(OC(F)(F)F)cc2)nn1
A) 0
